meta.source: ChEMBL document CHEMBL5518237

test: n-Octanol/water partition coefficient, logP of the compound by HPLC analysis; format: physicochemical; conditions: n-octanol/water; read-out: logP
measured_quantity: logP

INSERT INTO assay_data (smiles_text, value_measured) VALUES
  ('Nc1nc(-c2ccc(Br)cc2)nc2ccccc12', 2.12),
  ('Cl.FCCNc1nc(-c2ccc(I)cc2)nc2ccccc12', 3.91);

Next item in the queue.
CCNc1nc(-c2ccc(I)cc2)nc2ccccc12.Cl has a reported logP of 3.81

---

target: UniProt:Q16678; assay: Inhibition of human recombinant CYP1B1 using 7-ethoxyresorufin as substrate at 0.01 uM preincubated with enzyme for 5 mins followed by fluorescent substrate and NADPH addition and measured after 35 mins by EROD assay; assay type: ADME; conditions: recombinant CYP1B1, probe 7-ethoxyresorufin, time 40 min
measured_quantity: inhibition at 35 min, 0.01 µM (%)
Give bare numbers, in %.

These recorded examples may help you get a feel for the data.
INSERT INTO measurements (smiles_text, unit_text, value_measured) VALUES
  ('Nc1nc(-c2ccc(C(=O)O)cc2)nc2ccccc12', '%', 20.2),
  ('O=c1[nH]c(-c2ccc(Br)cc2)nc2ccccc12', '%', 69.5),
  ('Nc1nc(-c2ccccc2)nc2ccccc12', '%', -13.5);

Dear colleague, could you please provide inhibition at 35 min, 0.01 µM for the compounds listed below?
1. Nc1nc(-c2ccc(I)cc2)nc2c1ccc1ccccc12
2. Nc1nc(-c2ccc(Br)nc2)nc2ccccc12
3. Nc1nc(-c2cccc(Cl)c2)nc2ccccc12
4. Nc1nc(-c2cccc(I)c2)nc2ccccc12
5. Nc1nc(-c2ccc(Cl)cc2)nc2c1ccc1ccccc12
6. Ic1ccc(-c2nc(N3CCCCC3)c3ccccc3n2)cc1

A)
[63.1, 12.8, 25.8, 66.4, 69.4, 13.8]

---

test system: CYP1A1 versus CYP1B1; test: Selectivity ratio of IC50 for Inhibition of human recombinant CYP1A1 to IC50 for Inhibition of human recombinant CYP1B1; format: ADME; conditions: recombinant CYP1A1 and recombinant CYP1B1, read-out: Ratio IC50
Answer condition not met if selectivity ratio is under 100, and condition met if it is 100 or more.

INSERT INTO results (smiles_text, target_or_system, discrete_label) VALUES
  ('Nc1nc(-c2ccc(Br)cc2)nc2ccccc12', 'CYP1A1 versus CYP1B1', 'condition met'),
  ('Cc1ccc(-c2nc(N)c3ccccc3n2)cc1', 'CYP1A1 versus CYP1B1', 'condition met'),
  ('Cl.FCCNc1nc(-c2ccc(I)cc2)nc2ccccc12', 'CYP1A1 versus CYP1B1', 'condition met');

We now examine a further compound.
Q) hey, is selectivity ratio for this one >= 100? Nc1nc(-c2ccc(Br)cc2)nc2c1ccc1ccccc12
A) condition not met

---

Provide the recorded Ratio IC50 for the entries that follow.
assay: Selectivity ratio of IC50 for Inhibition of human recombinant CYP1A2 to IC50 for Inhibition of human recombinant CYP1B1; assay type: ADME; settings: recombinant enzyme

Recorded results for 3 compounds are shown here.
INSERT INTO assay_data (smiles_text, measured_quantity, value_measured) VALUES
  ('FCCNc1nc(-c2ccc(I)cc2)nc2ccccc12', 'Ratio IC50', 3029.17),
  ('Nc1nc(-c2ccc(I)cc2)nc2ccccc12', 'Ratio IC50', '6.23 10^4No_unit'),
  ('CNc1nc(-c2ccc(I)cc2)nc2ccccc12.Cl', 'Ratio IC50', '4.92 10^6No_unit');

# evaluate next
Entry under test: CNc1nc(-c2ccc(I)cc2)nc2ccccc12 . Its Ratio IC50 was 1.49 10^6No_unit

---

Provide the reported inhibition at 35 min, 1 µM of each item.
Molecular target: CYP1B1 (Homo sapiens, UniProt Q16678)
Sequence (Q16678 whole entry): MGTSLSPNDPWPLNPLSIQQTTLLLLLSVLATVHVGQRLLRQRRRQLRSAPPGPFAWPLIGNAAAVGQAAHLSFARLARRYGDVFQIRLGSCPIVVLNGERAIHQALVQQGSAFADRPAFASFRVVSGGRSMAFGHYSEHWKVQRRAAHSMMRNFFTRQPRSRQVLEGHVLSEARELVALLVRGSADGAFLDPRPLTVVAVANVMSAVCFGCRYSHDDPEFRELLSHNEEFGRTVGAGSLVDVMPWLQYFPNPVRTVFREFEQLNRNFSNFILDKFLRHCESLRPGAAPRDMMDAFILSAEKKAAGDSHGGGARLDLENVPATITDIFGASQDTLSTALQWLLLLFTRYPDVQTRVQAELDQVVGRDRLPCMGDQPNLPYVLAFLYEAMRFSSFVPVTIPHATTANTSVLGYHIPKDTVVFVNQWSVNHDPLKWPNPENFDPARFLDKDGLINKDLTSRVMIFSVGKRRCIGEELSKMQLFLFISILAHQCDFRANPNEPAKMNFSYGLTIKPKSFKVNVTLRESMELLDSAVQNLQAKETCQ
Experiment: Inhibition of human recombinant CYP1B1 using 7-ethoxyresorufin as substrate at 1 uM preincubated with enzyme for 5 mins followed by fluorescent substrate and NADPH addition and measured after 35 mins by EROD assay
Type: ADME
Conditions: recombinant CYP1B1, probe 7-ethoxyresorufin, time 40 min
For clarity, give the value followed by its unit.

INSERT INTO assay_data (smiles_text, value_measured) VALUES
  ('Nc1nc(-c2ccccc2)nc2c1ccc1ccccc12', '93.5%'),
  ('Nc1nc(-c2ccccc2)nc2ccccc12', '65.5%'),
  ('Nc1nc(-c2cccc(C(=O)O)c2)nc2ccccc12', '10.2%'),
  ('Nc1nc(-c2cccc(Br)c2)nc2c1ccc1ccccc12', '93.8%'),
  ('O=c1cc(-c2ccccc2)oc2c1ccc1ccccc12', '95.1%'),
  ('COc1ccc(-c2nc(N)c3ccc4ccccc4c3n2)cc1', '95.2%'),
  ('CC(C)Nc1nc(-c2ccc(I)cc2)nc2ccccc12', '95.3%'),
  ('Nc1nc(-c2cccc(Cl)c2)nc2ccccc12', '74.4%'),
  ('C#CCOc1ccc(-c2nc(N)c3ccccc3n2)cc1', '96%'),
  ('Cc1ccc(-c2nc(N)c3ccccc3n2)cc1', '97.8%');

# map each compound to its inhibition at 35 min, 1 µM
1. Nc1nc(-c2ccc(F)cc2)nc2ccccc12
2. Nc1nc(-c2ccc(C(=O)O)cc2)nc2ccccc12

A)
1: 80.7%; 2: -2.32%

---

Please respond with reported Activity for every item in the list.
test system: A549; test: Induction of apoptosis in DMBA-stimulated PTX resistant human A549 cells assessed as apoptosis rate at 5 uM incubated for 24 hrs by flow cytometry (reference value: 6.67 +/- 1.03%); assay type: functional
Answers are plain numbers, in %.

INSERT INTO results (compound, unit_text, value_measured) VALUES
  ('Cl.Nc1nc(-c2ccc(I)cc2)nc2ccccc12', '%', 18.53),
  ('CNc1nc(-c2ccc(I)cc2)nc2ccccc12.Cl', '%', 32.84),
  ('Cl.FCCNc1nc(-c2ccc(I)cc2)nc2ccccc12', '%', 21.05),
  ('O=c1cc(-c2ccccc2)oc2c1ccc1ccccc12 [ALPHA-NAPHTHOFLAVONE]', '%', 15.53);

# next compound below
Measured Activity, CCNc1nc(-c2ccc(I)cc2)nc2ccccc12.Cl : 26.15

---

Assign Ratio IC50 to each entry below.
experiment: Selectivity ratio of IC50 for Inhibition of human recombinant CYP1A1 to IC50 for Inhibition of human recombinant CYP1B1; assay type: ADME; conditions: recombinant enzyme
One number for each entry.

Please review the following examples before continuing.
INSERT INTO assay_data (smiles_text, measured_quantity, value_measured) VALUES
  ('FCCNc1nc(-c2ccc(I)cc2)nc2ccccc12', 'Ratio IC50', 151.87),
  ('Nc1nc(-c2ccc(I)cc2)nc2ccccc12', 'Ratio IC50', 287);

Proceed to the following item.
Query Cl.Nc1nc(-c2ccc(I)cc2)nc2ccccc12 yields Ratio IC50 of 617.5

---

Target: UniProtKB Q16678
Sequence (Q16678 whole entry): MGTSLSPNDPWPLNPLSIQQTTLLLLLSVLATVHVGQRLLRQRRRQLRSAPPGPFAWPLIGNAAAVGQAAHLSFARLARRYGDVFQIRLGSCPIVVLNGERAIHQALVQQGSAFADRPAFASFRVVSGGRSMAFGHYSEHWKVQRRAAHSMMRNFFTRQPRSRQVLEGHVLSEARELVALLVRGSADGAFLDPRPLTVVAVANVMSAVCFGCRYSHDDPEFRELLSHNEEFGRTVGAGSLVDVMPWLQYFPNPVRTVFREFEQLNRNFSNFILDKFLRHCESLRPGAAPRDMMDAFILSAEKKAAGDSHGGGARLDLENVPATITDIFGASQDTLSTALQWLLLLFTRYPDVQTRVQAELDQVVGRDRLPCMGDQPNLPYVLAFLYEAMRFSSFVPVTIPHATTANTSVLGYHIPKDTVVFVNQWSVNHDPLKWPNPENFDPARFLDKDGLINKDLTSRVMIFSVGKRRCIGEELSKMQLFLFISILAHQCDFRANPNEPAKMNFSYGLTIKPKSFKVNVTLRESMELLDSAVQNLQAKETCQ
Assay: Inhibition of human recombinant CYP1B1 using 7-ethoxyresorufin as substrate at 0.01 uM preincubated with enzyme for 5 mins followed by fluorescent substrate and NADPH addition and measured after 35 mins by EROD assay
Format: ADME
Settings: recombinant CYP1B1, probe 7-ethoxyresorufin, time 40 min
Could you please report measured inhibition at 35 min, 0.01 µM for the items listed next?
Answers are plain numbers, in %.

Recorded results for 5 compounds are shown here.
INSERT INTO measurements (smiles_text, measured_quantity, value_measured) VALUES
  ('Nc1nc(-c2cccc(C(=O)O)c2)nc2ccccc12', 'inhibition at 35 min, 0.01 µM', 22.4),
  ('Nc1nc(-c2cccc(F)c2)nc2ccccc12', 'inhibition at 35 min, 0.01 µM', -1.45),
  ('Cc1ccc(-c2nc(N)c3ccc4ccccc4c3n2)cc1', 'inhibition at 35 min, 0.01 µM', -13.1),
  ('COc1cccc(-c2nc(N)c3ccccc3n2)c1', 'inhibition at 35 min, 0.01 µM', 10.1),
  ('Nc1nc(-c2ccc(F)cc2)nc2ccccc12', 'inhibition at 35 min, 0.01 µM', 3.73);

Report inhibition at 35 min, 0.01 µM for each item below.
1. OCCNc1nc(-c2ccc(I)cc2)nc2ccccc12
2. Nc1nc(-c2cccc(Cl)c2)nc2c1ccc1ccccc12
3. Nc1nc(-c2ccc(Br)cc2)nc2ccccc12

A)
1: 68.5; 2: 14; 3: 82.7

Provide each entry's inhibition at 35 min, 0.01 µM from the list below.
1. Nc1nc(-c2cccc(Br)c2)nc2c1ccc1ccccc12
2. O=c1cc(-c2ccccc2)oc2c1ccc1ccccc12

A)
[-12.8, 61]
